Tested target: UniProt P97266
Sequence (P97266 whole entry): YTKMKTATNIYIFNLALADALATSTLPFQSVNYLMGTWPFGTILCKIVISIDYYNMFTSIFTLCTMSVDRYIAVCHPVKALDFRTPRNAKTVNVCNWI
Test description: Agonist activity at mu opioid receptor in guinea pig ileum assessed as inhibition of electrically-stimulated muscle contraction
pIC50: −log10 of the molar value. Where a SMILES comes first, the peptide text is derived from it. [ ]: non-standard residue; d: D form. d(β3hP) = O=C(O)C[C@H]1CCCN1
Parameter threshold = 6. Response is criterion met when pIC50 meets or exceeds it, else criterion not met.

- NC(=O)[C@H]1CCCN1C(=O)[C@H](Cc1ccccc1)NC(=O)C[C@H]1CCCN1C(=O)[C@@H](N)Cc1ccc(O)cc1 (H-Y[d(β3hP)]F[dP]-NH2): criterion met
- NC(=O)[C@H](Cc1ccccc1)NC(=O)[C@H](Cc1ccccc1)NC(=O)C[C@H]1CCCN1C(=O)[C@@H](N)Cc1ccc(O)cc1: criterion met
- NC(=O)[C@H](Cc1ccccc1)NC(=O)[C@H](Cc1ccccc1)NS(=O)(=O)[C@H]1CCN(C(=O)[C@@H](N)Cc2ccc(O)cc2)C1: criterion met
- NC(=O)[C@H](Cc1ccccc1)NC(=O)[C@H](Cc1ccccc1)NC(=O)C[C@@H]1CCCN1C(=O)[C@@H](N)Cc1ccc(O)cc1: criterion met
- NC(=O)[C@H](Cc1ccccc1)NC(=O)[C@H](Cc1ccccc1)NS(=O)(=O)[C@@H]1CCN(C(=O)[C@@H](N)Cc2ccc(O)cc2)C1: criterion met
- NC(=O)[C@H](Cc1ccccc1)NC(=O)[C@H](Cc1ccccc1)NS(=O)(=O)C[C@H]1CCCN1C(=O)[C@@H](N)Cc1ccc(O)cc1: criterion not met

====

Here the recorded pIC50 is given for each entry.
Tested target: Delta-type opioid receptor (Mus musculus, UniProt P32300)
Sequence (P32300 whole entry): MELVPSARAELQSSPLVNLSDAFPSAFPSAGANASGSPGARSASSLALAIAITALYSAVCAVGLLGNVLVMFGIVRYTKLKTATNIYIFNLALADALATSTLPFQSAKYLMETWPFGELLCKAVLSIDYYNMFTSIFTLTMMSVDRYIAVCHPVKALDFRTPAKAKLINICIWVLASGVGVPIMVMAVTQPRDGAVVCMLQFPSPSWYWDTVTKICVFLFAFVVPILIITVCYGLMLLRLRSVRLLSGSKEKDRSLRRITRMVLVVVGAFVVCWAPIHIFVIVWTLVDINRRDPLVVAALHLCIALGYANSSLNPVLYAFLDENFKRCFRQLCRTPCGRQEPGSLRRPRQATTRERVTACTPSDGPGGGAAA
Test description: Agonist activity at delta opioid receptor in mouse vas deferens assessed as inhibition of electrically-stimulated muscle contraction
pIC50: −log10 of the molar value. Where a SMILES comes first, the peptide text is derived from it. [ ]: non-standard residue; d: D form. d(β3hP) = O=C(O)C[C@H]1CCCN1
Observable: pIC50

* NC(=O)[C@H](Cc1ccccc1)NC(=O)[C@H](Cc1ccccc1)NS(=O)(=O)[C@@H]1CCN(C(=O)[C@@H](N)Cc2ccc(O)cc2)C1 | 6.41
* NC(=O)[C@H]1CCCN1C(=O)[C@H](Cc1ccccc1)NC(=O)C[C@H]1CCCN1C(=O)[C@@H](N)Cc1ccc(O)cc1 (H-Y[d(β3hP)]F[dP]-NH2) | 7.02
* NC(=O)[C@H](Cc1ccccc1)NC(=O)[C@H](Cc1ccccc1)NS(=O)(=O)[C@H]1CCN(C(=O)[C@@H](N)Cc2ccc(O)cc2)C1 | 6.28

====

Here the recorded pIC50 is given for each entry.
Tested target: Delta-type opioid receptor (Mus musculus)
Test description: Agonist activity at delta opioid receptor in mouse vas deferens assessed as inhibition of electrically-stimulated muscle contraction
Type: functional, tissue-based
pIC50: −log10 of the molar value.
Observable: pIC50

* NC(=O)[C@H](Cc1ccccc1)NC(=O)[C@H](Cc1ccccc1)NC(=O)C[C@H]1CCCN1C(=O)[C@@H](N)Cc1ccc(O)cc1 | 5.72
* NC(=O)[C@H](Cc1ccccc1)NC(=O)[C@H](Cc1ccccc1)NS(=O)(=O)C[C@@H]1CCCN1C(=O)[C@@H](N)Cc1ccc(O)cc1 | 5.96
* NC(=O)[C@H](Cc1ccccc1)NC(=O)[C@H](Cc1ccccc1)NC(=O)C[C@@H]1CCCN1C(=O)[C@@H](N)Cc1ccc(O)cc1 | 5.89

The values you see were collected from ChEMBL document CHEMBL1250485.
